Reference for the values: patent US8431596B2

Each record here notes measured IC50.
Study Target: AXL (human catalytic domain) (Homo sapiens)
Construct: purchased Upstate Ltd. 14-512
Sequence (P30530 473-894): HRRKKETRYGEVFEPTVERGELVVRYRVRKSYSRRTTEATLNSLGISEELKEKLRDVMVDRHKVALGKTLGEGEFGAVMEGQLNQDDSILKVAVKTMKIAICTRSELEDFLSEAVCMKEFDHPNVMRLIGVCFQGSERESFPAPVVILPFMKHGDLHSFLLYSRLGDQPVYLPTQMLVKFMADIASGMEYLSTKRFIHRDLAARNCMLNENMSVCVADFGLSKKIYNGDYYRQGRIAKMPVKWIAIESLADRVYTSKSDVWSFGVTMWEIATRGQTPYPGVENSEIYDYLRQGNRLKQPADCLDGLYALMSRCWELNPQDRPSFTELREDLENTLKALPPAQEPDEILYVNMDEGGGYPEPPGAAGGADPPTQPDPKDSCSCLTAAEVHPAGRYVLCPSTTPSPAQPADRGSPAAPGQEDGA
Experiment Summary: AXL (human catalytic domain) Enzyme Activity Assay (IMAP fluorescence polarisation)
Assay type: biochemical
Measurement Parameters: first data set; recombinant AXL isoform 1 aa473-894, 150 μM ATP

Reference set (3 entries):
Compound: Cn1cc(-c2cccc3nc(NC(=O)C4CC4)nn23)cn1
IC50: < 1 µM
//
Compound: CNC(=O)COc1ccc(Nc2nc3cccc(-c4ccc(OC)cc4)n3n2)cc1
IC50: 1 to 10 µM
//
Compound: COc1ccc(-c2cccc3nc(Nc4ccc(N(C)C)cc4)nn23)cc1
IC50: 1 to 10 µM

Inquiry: Look up IC50: c1cc(-c2ccc(N3CCOCC3)cc2)n2nc(Nc3ccc(OCCN4CCCC4)cc3)nc2c1
Reply text: < 1 µM

---

Study Target: AXL (human catalytic domain) (Homo sapiens, UniProt P30530)
Construct: purchased Upstate Ltd. 14-512
Experiment Summary: AXL (human catalytic domain) Enzyme Activity Assay (IMAP fluorescence polarisation)
Format: biochemical
Measurement Parameters: further data set (WW-001 through WW-169, XX-001 through XX-469, YY-001 through YY-016, ZZ-001 through ZZ-003); 150 μM ATP
pIC50: −log10 of the molar value.
Each record here notes measured pIC50.

Reference set (4 entries):
Smi: Cc1ccc(-c2cccc3nc(Nc4ccc(OCCN5CCCC5)cc4)nn23)cc1C
pIC50: 6.00 to 7.00
//
Smi: CNc1ccc(Nc2nc3cccc(-c4ccc(OC)cc4)n3n2)cc1
pIC50: 5.00 to 6.00
//
Smi: c1ccc(CNc2cccc(-c3cccc4nc(Nc5ccc(OCCN6CCCC6)cc5)nn34)c2)cc1
pIC50: 6.00 to 7.00
//
Smi: c1cc(-c2ccc(-c3ccoc3)cc2)n2nc(Nc3ccc(OCCN4CCCC4)cc3)nc2c1
pIC50: 6.00 to 7.00

Next item in the queue.
Inquiry: Look up pIC50: COc1ccc(-c2cccc3nc(Nc4ccc(OCCN(C)CCO)cc4)nn23)cc1
Reply text: ≥ 7.00

---

Each record here notes measured pIC50.
Study Target: AXL (human catalytic domain) (Homo sapiens)
Construct: purchased Upstate Ltd. 14-512
Experiment Summary: AXL (human catalytic domain) Enzyme Activity Assay (IMAP fluorescence polarisation)
Type: biochemical
Measurement Parameters: first data set; recombinant AXL isoform 1 aa473-894, 150 μM ATP
pIC50: −log10 of the molar value.

Reference set (6 entries):
Smi: COc1ccc(-c2cccc3nc(Nc4ccc(OCCN(C)CCO)cc4)nn23)cc1
pIC50: > 6.00
--
Smi: COc1ccc(-c2cccc3nc(Nc4ccc5c(c4)OCCN5C)nn23)cc1
pIC50: > 6.00
--
Smi: O=C(Nc1nc2cccc(-c3ccccc3F)n2n1)C1CC1
pIC50: 5.00 to 6.00
--
Smi: COc1ccc(-c2cccc3nc(NC(=O)C4CC4)nn23)cc1C
pIC50: > 6.00
--
Smi: CC(=O)Nc1cccc(-c2cccc3nc(NC(=O)C4CC4)nn23)c1
pIC50: 5.00 to 6.00
--
Smi: O=C(Nc1nc2cccc(-c3cccs3)n2n1)C1CC1
pIC50: 5.00 to 6.00

Next item in the queue.
Inquiry: Checklist item: pIC50 tested on AXL (human catalytic domain) (Homo sapiens), entry NCc1cc2cc(Nc3nc4cccc(-c5ccc6c(c5)OCCO6)n4n3)ccc2o1 , value?
Reply text: > 6.00

---

Study Target: AXL (human catalytic domain) (Homo sapiens, UniProt P30530)
Construct: purchased Upstate Ltd. 14-512
Experiment Summary: AXL (human catalytic domain) Enzyme Activity Assay (IMAP fluorescence polarisation)
Format: biochemical
Measurement Parameters: further data set (WW-001 through WW-169, XX-001 through XX-469, YY-001 through YY-016, ZZ-001 through ZZ-003); 150 μM ATP
pIC50: −log10 of the molar value.
Experimental Endpoint: pIC50

Reference set (5 entries):
Compound: COCc1ccc(-c2cccc3nc(NC(=O)C4CC4)nn23)cc1
Reported Measurement: 5.00 to 6.00
--
Compound: CC(C)(C)NC(=O)NCc1cccc(-c2cccc3nc(Nc4ccc(OCCN5CCCC5)cc4)nn23)c1
Reported Measurement: 6.00 to 7.00
--
Compound: O=C(Nc1nc2cccc(-c3ccc4cc[nH]c4c3)n2n1)C1CC1
Reported Measurement: 6.00 to 7.00
--
Compound: Clc1ccc(-c2cccc3nc(Nc4ccc(OCCN5CCCC5)cc4)nn23)cc1
Reported Measurement: ≥ 7.00
--
Compound: Cc1cc(-c2cccc3nc(NC(=O)C4CC4)nn23)cc(C)c1O
Reported Measurement: 5.00 to 6.00

Inquiry: Look up pIC50: CCN(CC)CCOc1cccc(Nc2nc3cccc(-c4ccc(N(C)C)c(C)c4)n3n2)c1
Reply text: 6.00 to 7.00

Inquiry: Look up pIC50: c1ccc2oc(-c3cccc4nc(Nc5ccc(OCCN6CCCC6)cc5)nn34)cc2c1
Reply text: 6.00 to 7.00

Inquiry: Look up pIC50: CCCCCS(=O)(=O)n1cc(-c2cccc3nc(Nc4ccc(OCCN5CCCC5)cc4)nn23)cn1
Reply text: 6.00 to 7.00

Inquiry: Look up pIC50: CC(Sc1ccc(Nc2nc3cccc(-c4ccc5c(c4)OCCO5)n3n2)cc1)C(N)=O (stereo not drawn)
Reply text: 6.00 to 7.00

Inquiry: Look up pIC50: O=C(Nc1nc2cccc(-c3ccc(F)cc3)n2n1)C1CC1
Reply text: 5.00 to 6.00

Inquiry: Look up pIC50: O=C(Cn1cc(-c2cccc3nc(Nc4ccc(OCCN5CCCC5)cc4)nn23)cn1)c1cccs1
Reply text: 6.00 to 7.00

Inquiry: Look up pIC50: CN(C)c1ccc(-c2cccc3nc(Nc4ccc(OCCN5CCCC5)cc4)nn23)cn1
Reply text: 6.00 to 7.00

Inquiry: Look up pIC50: COc1ccc(-c2cccc3nc(Nc4ccc(OCCO)cc4)nn23)cc1
Reply text: 5.00 to 6.00

Inquiry: Look up pIC50: COCCn1cc(-c2cccc3nc(Nc4ccc(OCCN5CCCC5)cc4)nn23)cn1
Reply text: 6.00 to 7.00

Inquiry: Look up pIC50: COc1ccc(-c2cccc3nc(Nc4ccc(C(=O)NCCN5CCCC5)o4)nn23)cc1
Reply text: 6.00 to 7.00

Inquiry: Look up pIC50: CN(C)CCOc1ccc(Nc2nc3cccc(-c4ccc5c(c4)CCO5)n3n2)cc1
Reply text: ≥ 7.00

Inquiry: Look up pIC50: CC(Oc1ccc(Nc2nc3cccc(-c4ccc5c(c4)OCCO5)n3n2)cc1)C(N)=O (stereo not drawn)
Reply text: 6.00 to 7.00

Inquiry: Look up pIC50: CN(C)CCCc1cccc(Nc2nc3cccc(-c4ccc5c(c4)OCCO5)n3n2)c1
Reply text: 6.00 to 7.00

---

Each record here notes measured pIC50.
Study Target: AXL (human catalytic domain) (Homo sapiens, UniProt P30530)
Construct: purchased Upstate Ltd. 14-512
Experiment Summary: AXL (human catalytic domain) Enzyme Activity Assay (IMAP fluorescence polarisation)
Type: biochemical
Measurement Parameters: further data set (WW-001 through WW-169, XX-001 through XX-469, YY-001 through YY-016, ZZ-001 through ZZ-003); 150 μM ATP
pIC50: −log10 of the molar value.

Smi: Clc1ccc(-c2cccc3nc(Nc4ccc(OCCN5CCCC5)cc4)nn23)s1
Study Target: AXL (human catalytic domain) (Homo sapiens, UniProt P30530)
Reported Measurement: 6.00 to 7.00

Inquiry: Look up pIC50: Nc1cccc(-c2cccc3nc(NC(=O)C4CC4)nn23)c1
Reply text: 6.00 to 7.00

Inquiry: Look up pIC50: CCN(CC)CCOc1cc(Nc2nc3cccc(-c4ccc5c(c4)OCO5)n3n2)ccn1
Reply text: 6.00 to 7.00

Inquiry: Look up pIC50: O=C(NCCN1CCCC1)c1cccc(Nc2nc3cccc(-c4ccc5c(c4)OCCO5)n3n2)c1
Reply text: ≥ 7.00

Inquiry: Look up pIC50: FC(F)(F)c1cc(-c2cccc3nc(Nc4ccc(OCCN5CCCC5)cc4)nn23)ccc1Cl
Reply text: 6.00 to 7.00
